pEC50 overview
tested on: HIV-1 single-round infectious reporter virus; experiment: Single-round infectious HIV-1 luciferase reporter virus infection of HeLa CD4 cells (antiviral EC50); type: cell-based; conditions: Human immunodeficiency virus 1, HeLa, read-out: EC50 Group from Table 3
pEC50: −log10 of the molar value.

# annotated cases, reported pEC50 shown
COc1cnc(-c2ccn(CC(=O)O)n2)c2[nH]cc(C(=O)C(=O)N3CCN(c4nnnn4-c4ccccn4)CC3)c12 | > 6.30
O=C(C(=O)N1CCN(c2nnnn2-c2ccccc2)CC1)c1c[nH]c2c(-c3cc(C(=O)N4CCSC4)[nH]n3)ncc(F)c12 | > 6.30
O=C(C(=O)N1CCN(c2ccccc2C2CCCCC2)CC1)c1c[nH]c2c(-n3ccnn3)ncc(F)c12 | < 6.30
CC(=O)NCCNC(=O)c1cc(-c2ncc(F)c3c(C(=O)C(=O)N4CCN(c5nnnn5-c5ccccc5)CC4)c[nH]c23)n[nH]1 | > 6.30
O=C(C(=O)N1CCN(c2nnnn2-c2ccccc2)CC1)c1c[nH]c2c(-c3cc[nH]n3)ncc(F)c12 | > 6.30

Input line: Fill in: pEC50 of `COc1cnc(-c2ccn(CC(=O)N(C)C)n2)c2[nH]cc(C(=O)C(=O)N3CCN(c4nnnn4-c4ccccn4)CC3)c12` is ___
Output line: < 6.30

* * *

test system: HIV-1 single-round infectious reporter virus; experiment: Single-round infectious HIV-1 luciferase reporter virus infection of HeLa CD4 cells (antiviral EC50); type: cell-based; conditions: Human immunodeficiency virus 1, HeLa, read-out: EC50 Group from Table 3
pEC50: −log10 of the molar value.
Measured Metric: pEC50

# annotated cases, reported pEC50 shown
COc1cnc(-n2cnc(C)n2)c2[nH]cc(C(=O)C(=O)N3CCN(c4nc(SC)nn4-c4ccccc4)CC3)c12 [G-26b] | > 6.30
COc1cnc(-c2cccnc2)c2[nH]cc(C(=O)C(=O)N3CCN(c4nnnn4-c4ccccn4)CC3)c12 | > 6.30
COc1cnc(-n2cnc(C)n2)c2[nH]cc(C(=O)C(=O)N3CCC(n4ccnc4-c4ccccc4)CC3)c12 [G-11b] | < 6.30
O=C(C(=O)N1CCN(c2cc(O)nnc2-c2ccccc2)CC1)c1c[nH]c2c(-n3ccnn3)ncc(F)c12 | > 6.30
O=C(C(=O)N1CCN(c2nc(-c3ccccc3)cs2)CC1)c1c[nH]c2c(-n3ccnn3)ncc(F)c12 | > 6.30

Input line: Fill in the blank: the reported pEC50 of `COc1cnc(-c2ccn(CC(=O)O)n2)c2c1c(C(=O)C(=O)N1CCN(c3nnnn3-c3ccccn3)CC1)cn2CC(=O)O` is ____.
Output line: < 6.30

Input line: Which value of pEC50 has been reported for `O=C(c1ccccn1)c1cccnc1N1CCN(C(=O)C(=O)c2c[nH]c3c(-n4ccnn4)ncc(F)c23)CC1` in the records?
Output line: > 6.30

Input line: Consider the compound shown here: `COc1cnc(-n2cnc(C)n2)c2[nH]cc(C(=O)C(=O)N3CCN(c4cn[nH]c4-c4ccccn4)CC3)c12` What is its recorded pEC50?
Output line: > 6.30

Input line: # query: pEC50 of entry `C[C@H]1CN(c2nnnn2-c2ccccc2)CCN1C(=O)C(=O)c1c[nH]c2c(-n3ccnn3)ncc(F)c12`
Output line: > 6.30

Input line: Record request: pEC50 value, item `Cc1cc(NC(=O)c2cccnc2N2CCN(C(=O)C(=O)c3c[nH]c4c(-n5ccnn5)ncc(F)c34)CC2)no1`
Output line: < 6.30

Input line: Reported pEC50, compound `COc1cnc(-n2ccnn2)c2[nH]cc(C(=O)C(=O)N3CCN(c4nnnn4-c4ccccc4)CC3)c12` : ____
Output line: > 6.30

Input line: State the recorded pEC50 for this entry: COc1cnc(-n2cnc(C)n2)c2[nH]cc(C(=O)C(=O)N3CCC(N4CCN=C4c4ccccc4)CC3)c12 [G-10b]
Output line: < 6.30

Input line: Look at this compound and give its reported pEC50. `COc1cnc(-n2cnc(C)n2)c2[nH]cc(C(=O)C(=O)N3CCN(c4ccnn4-c4ccccc4)CC3)c12`
Output line: > 6.30

Input line: State the recorded pEC50 for this entry: `O=C(C(=O)N1CCN(c2nnnn2-c2ccccc2)CC1)c1c[nH]c2c(-c3cc(C(=O)N4CC[C@@H](O)C4)[nH]n3)ncc(F)c12`
Output line: > 6.30

Input line: I have this compound here, O=C(C(=O)N1CCN(c2ncnn2-c2ccccc2)CC1)c1c[nH]c2c(-n3ccnn3)ncc(F)c12 [G-27a] , and I need its recorded pEC50.
Output line: > 6.30

Provenance of the data: patent US7807676B2
